Structures can show the parent of a compound that is named as a salt.
measurement kind: melting point

1) CC(=O)c1ccc(-c2cnc3ccc(N(C)CCCNC(=O)OC(C)(C)C)nn23)s1 [Example 5.6.27]: 148 to 149 °C
2) CC(C)SC(=O)N1CCN(c2ccc3ncc(-c4ccccc4)n3n2)CC1 (as salt: hydrochloride): 276 to 277 °C (dec.)
3) CC(C)(C)NC(=O)N1CCN(c2ccc3ncc(Br)n3n2)CC1: 199 to 200 °C
4) CN(CCNc1ccc2ncc(-c3ccc(C(N)=O)cc3)n2n1)C(=O)NC(C)(C)C: 154 to 155 °C
5) FC(F)(F)CCCNc1ccc2ncc(-c3cccc4c3OCC4)n2n1 (as salt: hydrochloride) [Example 5.6.106]: 299 to 300 °C
6) COc1cnccc1-c1cnc2ccc(N3CCN(C(=O)CC(C)(C)C)CC3)nn12 (as salt: hydrochloride) [Example 5.6.114]: 211 to 212 °C (dec.)
7) O=C(N1CCCC1)N1CCN(c2ccc3ncc(-c4ccccn4)n3n2)CC1 (as salt: hydrochloride): 202 to 203 °C
8) CC(C)OC(=O)N1CCN(c2ccc3ncc(Br)n3n2)C(C)C1 (racemic) [Example 5.6.146]: 52 to 54 °C
